Entry source: ChEMBL document CHEMBL1152616

The following compounds have recorded IC50 on Substance-P receptor (Rattus norvegicus, UniProt P14600).
Sequence (P14600 whole entry): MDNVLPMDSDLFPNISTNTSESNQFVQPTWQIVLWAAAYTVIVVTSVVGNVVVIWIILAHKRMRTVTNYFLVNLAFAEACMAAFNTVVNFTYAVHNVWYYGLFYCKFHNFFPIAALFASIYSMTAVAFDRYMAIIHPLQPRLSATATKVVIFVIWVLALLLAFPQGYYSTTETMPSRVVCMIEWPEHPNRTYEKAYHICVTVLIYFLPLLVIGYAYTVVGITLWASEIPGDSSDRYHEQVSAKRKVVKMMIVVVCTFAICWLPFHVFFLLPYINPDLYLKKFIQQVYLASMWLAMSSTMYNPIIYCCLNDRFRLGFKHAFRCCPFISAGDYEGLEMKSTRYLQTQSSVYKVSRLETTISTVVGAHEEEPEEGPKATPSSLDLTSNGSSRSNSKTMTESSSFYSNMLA
Positions of bridges follow the written chain, without caps; N, C: chain ends. Non-standard residues stand in square brackets, D forms with d. Residues, ends and D or L forms follow the SMILES beside them. *: point of attachment. NH(3,5-(CF3)2-benzyl) = FC(F)(F)c1cc(CN*)cc(C(F)(F)F)c1; Nle = CCCC[C@H](N)C(=O)O
Output spec: scalar in nM, unitless text.

Reference set (3 entries):
CCCC[C@@H]1NC(=O)[C@H](Cc2ccccc2)NC(=O)CNC(=O)[C@H](NC(=O)[C@@H](N)Cc2ccc(O)cc2)CSSC[C@H](C(=O)N[C@@H](Cc2c[nH]c3ccccc23)C(=O)NCc2cc(C(F)(F)F)cc(C(F)(F)F)c2)NC(=O)[C@@H]2CCCN2C1=O (H-Y[dC]GF[Nle]P[dC]W-{NH(3,5-(CF3)2-benzyl)}; disulfide 2-7) ... 22.4
CC(C)C[C@H](NC(=O)[C@@H]1CCCN1C(=O)[C@H]1CSSC[C@@H](NC(=O)[C@@H](N)Cc2ccc(O)cc2)C(=O)NCC(=O)N[C@@H](Cc2ccccc2)C(=O)N1)C(=O)N[C@@H](Cc1c[nH]c2ccccc12)C(=O)NCc1cc(C(F)(F)F)cc(C(F)(F)F)c1 ... 138
CCCC[C@@H]1NC(=O)[C@H](Cc2ccccc2)NC(=O)CNC(=O)[C@H](NC(=O)[C@@H](N)Cc2ccc(O)cc2)CSSC[C@@H](C(=O)N[C@@H](Cc2c[nH]c3ccccc23)C(=O)NCc2cc(C(F)(F)F)cc(C(F)(F)F)c2)NC(=O)[C@@H]2CCCN2C1=O (H-Y[dC]GF[Nle]PCW-{NH(3,5-(CF3)2-benzyl)}; disulfide 2-7) ... 95.5

Moving on to the next compound.
IN: Hello, I am looking for reported IC50 with Substance-P receptor (Rattus norvegicus, UniProt P14600) for `CC(C)C[C@H](NC(=O)[C@@H]1CCCN1C(=O)[C@@H]1CSSC[C@@H](NC(=O)[C@@H](N)Cc2ccc(O)cc2)C(=O)NCC(=O)N[C@@H](Cc2ccccc2)C(=O)N1)C(=O)N[C@@H](Cc1c[nH]c2ccccc12)C(=O)NCc1cc(C(F)(F)F)cc(C(F)(F)F)c1` . Could you help?
OUT: 1780

---

Target: Delta-type opioid receptor (Mus musculus)
Sequence (P32300 whole entry): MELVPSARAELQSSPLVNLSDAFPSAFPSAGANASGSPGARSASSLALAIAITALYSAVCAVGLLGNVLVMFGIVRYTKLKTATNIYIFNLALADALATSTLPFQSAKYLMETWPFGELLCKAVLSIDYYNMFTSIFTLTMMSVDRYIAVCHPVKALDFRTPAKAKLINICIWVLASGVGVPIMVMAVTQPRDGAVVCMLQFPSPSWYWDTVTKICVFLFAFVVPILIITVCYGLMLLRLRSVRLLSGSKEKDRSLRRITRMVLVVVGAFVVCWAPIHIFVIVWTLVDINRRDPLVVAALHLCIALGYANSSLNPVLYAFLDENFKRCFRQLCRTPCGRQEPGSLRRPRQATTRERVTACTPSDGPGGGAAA
Assay: Agonist activity at delta opioid receptor in mouse vas deferens assessed as inhibition of electrically-stimulated contraction
metric.name: pIC50
Just the number, please; pIC50 means minus log10 of the concentration in mol/L.

IN: Need pIC50 of `CSCC[C@H](NC(=O)[C@H](Cc1ccccc1)NC(=O)CNC(=O)[C@@H](C)NC(=O)[C@@H](N)Cc1ccc(O)cc1)C(N)=O` , thanks.
OUT: 7.44
